- study-system: Glucose-dependent insulinotropic receptor (Homo sapiens)
- method: Agonist activity at human GPR119 overexpressed in CHO cells assessed as increase in cellular cAMP production by HTRF method relative to AR231453
- Format: functional, cell-based
result-type: Efficacy (%)

COC(=O)[C@@]1(Cc2cccc(F)c2)NCc2cnc3c(-c4ccc(C(F)(F)F)nc4)c(CO)nn3c21 :: 101
Fc1cccc(CC2(C3CC3)NCc3cnc4c(-c5ccc(C(F)(F)F)cc5)cnn4c32)c1 (racemic) :: 87
CCOC(=O)C1(Cc2ccccc2)CCCCCc2cnc3c(-c4ccc(C(F)(F)F)cc4)cnn3c21 (racemic) :: 56
COC(=O)[C@@]1(Cc2cccc(F)c2)CCc2cnc3c(-c4ccc(C(F)(F)F)cc4)cnn3c21 :: 92
COC(=O)[C@@]1(Cc2cccc(F)c2)N=Cc2cnc3c(-c4ccc(C(F)(F)F)cc4)cnn3c21 :: 84
COCCN(C)C(=O)[C@@]1(Cc2cccc(F)c2)NCc2cnc3c(-c4ccc(C(F)(F)F)cc4)cnn3c21 :: 90
COC(=O)[C@@]1(Cc2cccc(F)c2)NCc2cnc3c(-c4ccc(C(F)(F)F)cc4)c(C(N)=O)nn3c21 :: 74
COC(=O)[C@@]1(Cc2cccc(F)c2)NCc2cnc3c(-c4ccc(C(F)(F)F)cc4)c(CO)nn3c21 :: 99
CCOC(=O)C1(Cc2cccc(F)c2)NC(=O)c2cnc3c(-c4ccc(C(F)(F)F)cc4)cnn3c21 (racemic) :: 81
CCOC(=O)[C@](C)(Cc1ccccc1)c1c(C)cnc2c(-c3ccc(C(F)(F)F)cc3)cnn12 :: 80
CC1(Cc2cccc(F)c2)NCc2cnc3c(-c4ccc(C(F)(F)F)cc4)cnn3c21 (racemic) :: 77
OCc1nn2c3c(cnc2c1-c1ccc(C(F)(F)F)nc1)CN[C@]3(Cc1cccc(F)c1)C1CC1 :: 82
COC(=O)C1(Cc2ccccc2)CCc2cnc3c(-c4ccc(C(F)(F)F)cc4)cnn3c21 (racemic) :: 82
COC(=O)[C@@]1(Cc2cccc(F)c2)NCc2cnc3c(-c4ccc(C(F)(F)F)cc4)cnn3c21 :: 91
CCOC(=O)[C@@]1(Cc2ccccc2)CNc2cnc3c(-c4ccc(C(F)(F)F)cc4)cnn3c21 :: 75
